tested-system: β-Glucuronidase (Bovine liver) (Bos taurus, UniProt A3KMY8)
Construct: purchased Sigma-Aldrich Chemical Co; host or cells: bovine liver
Sequence (A3KMY8 1-652): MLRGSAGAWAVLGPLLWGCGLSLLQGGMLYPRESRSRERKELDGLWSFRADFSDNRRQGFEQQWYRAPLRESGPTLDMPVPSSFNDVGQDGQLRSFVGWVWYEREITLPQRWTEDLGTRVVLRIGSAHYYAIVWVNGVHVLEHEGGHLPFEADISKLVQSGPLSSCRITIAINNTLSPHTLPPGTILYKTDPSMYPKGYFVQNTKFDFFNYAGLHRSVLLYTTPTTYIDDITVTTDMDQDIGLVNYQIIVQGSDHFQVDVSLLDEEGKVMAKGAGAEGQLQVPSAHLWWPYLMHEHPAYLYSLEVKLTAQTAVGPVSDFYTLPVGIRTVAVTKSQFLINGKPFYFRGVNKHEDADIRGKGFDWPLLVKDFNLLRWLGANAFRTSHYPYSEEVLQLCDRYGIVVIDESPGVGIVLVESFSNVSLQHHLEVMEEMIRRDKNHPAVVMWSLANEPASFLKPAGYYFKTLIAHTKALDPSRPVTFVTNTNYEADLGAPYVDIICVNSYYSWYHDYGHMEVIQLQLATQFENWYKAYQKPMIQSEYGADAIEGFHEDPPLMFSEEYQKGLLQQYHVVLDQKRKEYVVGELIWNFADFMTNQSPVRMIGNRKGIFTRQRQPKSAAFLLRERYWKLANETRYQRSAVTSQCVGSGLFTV
assay-summary: β-Glucuronidase (bovine liver) inhibition
Assay type: biochemical
run-conditions: 1000 μM, read-out: Inhibition % at 1000 μM
Procedure: With rat intestinal maltase as an exception, other enzymes were purchased from Sigma-Aldrich Chemical Co. (St. Louis, MO, USA). […] The released D-glucose was determined colorimetrically using the Glucose CII-test Wako (Wako Pure Chemical Ind.; Osaka, Japan). Other glycosidase activities were determined using an appropriate p-nitrophenyl glycoside as substrate in a buffer solution at the optimal pH value of each enzyme. […] The released p-nitrophenol was measured spectrometrically at 400 nm.
Structures can show the parent of a compound that is named as a salt.
experimental-readout: inhibition at 1000 µM (%)
Value expressed in %; do not type the unit.

Entry "CC(=O)NC[C@H]1N[C@H](CO)[C@H](O)[C@@H]1O" ; inhibition at 1000 µM = 1.3

Per the records, this compound ( CC(=O)NC[C@H]1N[C@@H](CO)[C@@H](O)[C@@H]1O [E-10a] ) has inhibition at 1000 µM equal to 0

The reported value for "CC(=O)NC[C@H]1N[C@@H](CO)[C@H](O)[C@@H]1O" in terms of inhibition at 1000 µM is 0

Entry "CC(=O)NC[C@@H]1N[C@@H](CO)[C@H](O)[C@H]1O" — recorded inhibition at 1000 µM = 4.6

The compound identified as CC(=O)NC[C@H]1N[C@H](CO)[C@H](O)[C@H]1O [F-10b] registered its inhibition at 1000 µM at 0

Sure, the documented inhibition at 1000 µM for "CC(=O)NC[C@@H]1N[C@H](CO)[C@@H](O)[C@H]1O" is 0

Note to self: inhibition at 1000 µM recorded for CC(=O)NC[C@@H]1N[C@H](CO)[C@H](O)[C@H]1O [F-10a] was 0

Entry "CC(=O)NC[C@@H]1N[C@@H](CO)[C@@H](O)[C@H]1O" ; inhibition at 1000 µM = 0

Entry under test: CC(=O)NC[C@H]1N[C@H](CO)[C@@H](O)[C@@H]1O [4·HCl] . Its inhibition at 1000 µM was 1.7

compound CC(=O)NC[C@@H]1N[C@@H](CO)[C@@H](O)[C@@H]1O [E-10b] , inhibition at 1000 µM observed: 4.3
